System: HT22 cells
Experiment: In vitro neurotoxicity without glutamate (MTS cell viability)
Assay type: cell-based, mouse
Conditions: HT22 cells without glutamate, 24 hrs, MTS; concentration producing 50% toxicity; read-out: Toxicity TC50
Experimental: The HT22 neuronal cell line is a subclone of HT4, derived from the mouse hippocampus (Morimoto and Koshland, 1990). […] HT22 cells were used. […] Cell viability was assessed by the ability of the viable cells to metabolize 3-(4,5-dimethylthiazol-2-yl)-5-(3-carboxymethoxyphenyl)-2(4-sulfophenyl)2-H-tetrazolium, inner salt (MTS), as described previously (Cory et al., 1991). […] Absorbance at 490 nm was subsequently measured by a SpectraMax 190 plate reader (Molecular Devices). […]
As shown below, each of these compounds has a reported CC50 value.

[
  {
    "smilesRepresentation": "O=C1C=C(NCc2ccccc2)C(=O)c2ccccc21",
    "CC50": "> 100 µM"
  },
  {
    "smilesRepresentation": "O=C1C=C(NCc2cccc(Cl)c2)C(=O)c2ccccc21",
    "CC50": "> 100 µM"
  },
  {
    "smilesRepresentation": "COc1ccc(CNC2=CC(=O)c3ccccc3C2=O)cc1",
    "CC50": "> 100 µM"
  },
  {
    "smilesRepresentation": "CC(C)NC1=CC(=O)c2ccccc2C1=O",
    "CC50": "46 µM"
  }
]
